test: Transdermal delivery of melatonin: plasma level of melatonin after applying composition to skin of a subject; conditions: human, plasma, topical, 3 mg, Plasma level of melatonin, salt of tryptophan isopropyl ester, A− = I^−, 187.04 mM, 0.30 mL applied, 2 hr after transdermal administration
Readout kind: concentration at 2 h (ng/mL)
Hi! Could you send only the number? It should be in ng/mL, unit omitted.

// concentration at 2 h lookup, key: COc1ccc2[nH]cc(CCNC(C)=O)c2c1
2.3

* * *

assay: Transdermal delivery of melatonin: plasma level of melatonin after applying composition to skin of a subject; conditions: human, plasma, topical, 0.3 mL of 1% melatonin in water, Plasma level of melatonin, salt of tyrosine isopropyl ester, A− = Lactate ion, 221.97 mM, 0.30 mL applied, 0 hr after transdermal administration
Readout kind: concentration at 0 h (ng/mL)
Write it as a number; the unit ng/mL goes unstated.

Quick one: concentration at 0 h of COc1ccc2[nH]cc(CCNC(C)=O)c2c1 ?
0

* * *

test: Transdermal delivery of melatonin: plasma level of melatonin after applying composition to skin of a subject; conditions: human, plasma, topical, Plasma level of melatonin, salt of tyrosine isopropyl ester, A− = AcO^−, 245.0 mM, 0.30 mL applied, 4 hr after transdermal administration
Readout kind: concentration at 4 h (ng/mL)
Field format: number, assumed ng/mL, no unit text.

For the compound shown here, COc1ccc2[nH]cc(CCNC(C)=O)c2c1 , give the reported concentration at 4 h.
1.9

* * *

test: Transdermal delivery of melatonin: plasma level of melatonin after applying composition to skin of a subject; settings: human, plasma, topical, 3 mg, Plasma level of melatonin, salt of tryptophan isopropyl ester, A− = I^−, 187.04 mM, 0.30 mL applied, 4 hr after transdermal administration
Readout kind: concentration at 4 h

What value of concentration at 4 h has been recorded for this entry: COc1ccc2[nH]cc(CCNC(C)=O)c2c1
2.2 ng/mL

* * *

assay: Transdermal delivery of melatonin: plasma level of melatonin after applying composition to skin of a subject; conditions: human, plasma, topical, 3 mg, Plasma level of melatonin, Helper esters: None (0 mM), 2.0 mL applied to skin, 0 hr after transdermal administration
Readout kind: concentration at 0 h
# output: number + unit

Entry COc1ccc2[nH]cc(CCNC(C)=O)c2c1 [Melatonin] has what concentration at 0 h?
0 ng/mL

* * *

assay: Transdermal delivery of melatonin: plasma level of melatonin after applying composition to skin of a subject; conditions: human, plasma, topical, 3 mg, Plasma level of melatonin, salt of tryptophan isopropyl ester, A− = Benzoate ion, 189.98 mM, 0.30 mL applied, 1 hr after transdermal administration
Readout kind: concentration at 1 h (ng/mL)
// note: answer is a bare numeric in ng/mL

Entry under review: COc1ccc2[nH]cc(CCNC(C)=O)c2c1 . Reported concentration at 1 h?
1.8

* * *

test: Transdermal delivery of melatonin: plasma level of melatonin after applying composition to skin of a subject; settings: human, plasma, topical, 0.3 mL of 1% melatonin in water, Plasma level of melatonin, salt of tyrosine isopropyl ester, A− = Benzoate ion, 202.65 mM, 0.30 mL applied, 2 hr after transdermal administration
Readout kind: concentration at 2 h

Could you share which concentration at 2 h value was measured for COc1ccc2[nH]cc(CCNC(C)=O)c2c1 [Melatonin] ?
2 ng/mL

* * *

assay: Transdermal delivery of melatonin: plasma level of melatonin after applying composition to skin of a subject; details: human, plasma, topical, 3 mg, Plasma level of melatonin, salt of tryptophan isopropyl ester, A− = Cl^−, 247.52 mM, 0.30 mL applied, 0 hr after transdermal administration
Readout kind: concentration at 0 h (ng/mL)
Give a bare numeral; the unit ng/mL is implied.

Given the entry COc1ccc2[nH]cc(CCNC(C)=O)c2c1 [Melatonin] , report its measured concentration at 0 h.
0

Reference source for all entries: patent US9962369B2
